Cited source: ChEMBL document CHEMBL3351932

assay: Permeability across apical to basolateral side in human Caco2 cells; assay type: ADME, cell-based; conditions: Caco-2, read-out: permeability
The entries below are paired with their reported Papp A→B.
# output: bare number, implied unit ×10⁻⁶ cm/s

Give Papp A→B for the following compound: CCOc1cc(NC(=O)C2(NC(=O)c3ccc4c(C5CCCC5)c(-c5ccc(F)cn5)n(C)c4c3)CCC2)ccc1/C=C/C(=O)O 17

Give Papp A→B for the following compound: COCCOc1cc(NC(=O)C2(NC(=O)c3ccc4c(C5CCCC5)c(-c5ncc(Cl)cn5)n(C)c4c3)CCC2)ccc1/C=C/C(=O)O 17

Give Papp A→B for the following compound: CC(C)Oc1cc(NC(=O)C2(NC(=O)c3ccc4c(C5CCCC5)c(-c5ccccn5)n(C)c4c3)CCC2)ccc1/C=C/C(=O)O 19

====

The entries below are paired with their reported IC50.
test: Inhibition of HCV full-length NS5B polymerase; parameters: species or system Hepacivirus hominis
# output: bare number, implied unit nM

Examples with answers:
chemical-structure: CCOc1cc(NC(=O)C2(NC(=O)c3ccc4c(C5CCCC5)c(-c5ccccc5)n(C)c4c3)CCC2)ccc1/C=C/C(=O)O
measure-unit: nM
IC50: 410
//
chemical-structure: Cc1cc(/C=C/C(=O)O)ccc1NC(=O)C1(NC(=O)c2ccc3c(C4CCCC4)c(-c4ccccn4)n(C)c3c2)CCC1
measure-unit: nM
IC50: 370
//
chemical-structure: Cn1c(-c2ccccn2)c(C2CCCC2)c2ccc(C(=O)NC3(C(=O)Nc4ccc(/C=C/C(=O)O)c(O)c4)CCC3)cc21
measure-unit: nM
IC50: 44

Give IC50 for the following compound: Cn1c(-c2ccccn2)c(C2CCCC2)c2ccc(C(=O)NC3(C(=O)Nc4c(F)cc(/C=C/C(=O)O)cc4F)CCC3)cc21 1320

Give IC50 for the following compound: Cn1c(-c2ccccn2)c(C2CCCC2)c2ccc(C(=O)NC3(C(=O)Nc4ccc(/C=C/C(=O)O)cc4O)CCC3)cc21 440

Give IC50 for the following compound: COCCOc1cc(NC(=O)C2(NC(=O)c3ccc4c(C5CCCC5)c(-c5ncc(Cl)cn5)n(C)c4c3)CCC2)ccc1/C=C/C(=O)O 200

Give IC50 for the following compound: COc1cc(NC(=O)C2(NC(=O)c3ccc4c(C5CCCC5)c(-c5ccccn5)n(C)c4c3)CCC2)ccc1/C=C/C(=O)O 47

Give IC50 for the following compound: CCOc1cc(NC(=O)C2(NC(=O)c3ccc4c(C5CCCC5)c(-c5ncc(Cl)cn5)n(C)c4c3)CC2)ccc1/C=C/C(=O)O 380

Give IC50 for the following compound: Cn1c(-c2ccccn2)c(C2CCCC2)c2ccc(C(=O)NC3(C(=O)Nc4ccc(/C=C/C(=O)O)c(Cl)c4)CCC3)cc21 100

Give IC50 for the following compound: COc1cc(NC(=O)C2(NC(=O)c3ccc4c(C5CCCC5)c(-c5ccccn5)n(C)c4c3)CCC2)cc(OC)c1/C=C/C(=O)O 340

Give IC50 for the following compound: CCOc1cc(NC(=O)C2(NC(=O)c3ccc4c(C5CCCC5)c(-c5cccc(N)n5)n(C)c4c3)CCC2)ccc1/C=C/C(=O)O 330

Give IC50 for the following compound: Cn1c(-c2ccccn2)c(C2CCCC2)c2ccc(C(=O)NC3(C(=O)Nc4ccc(/C=C/C(=O)O)cc4C(F)(F)F)CCC3)cc21 2250

Give IC50 for the following compound: CCOc1cc(NC(=O)C2(NC(=O)c3ccc4c(C5CCCC5)c(-c5cnccn5)n(C)c4c3)CCC2)ccc1/C=C/C(=O)O 48

====

experiment: Plasma concentration in rat at 4 mg/kg, po cassette dosing after 1 hr; format: ADME, organism-based; design: dose 4 mg/kg, route oral
experimental-readout: concentration at 1 h (nM)
# output: bare number, implied unit nM

Examples with answers:
chemical-structure: CCOc1cc(NC(=O)C2(NC(=O)c3ccc4c(C5CCCC5)c(-c5ncc(Br)cn5)n(C)c4c3)CCC2)ccc1/C=C/C(=O)O
value-measured: 1800
--
chemical-structure: CCOc1cc(NC(=O)C(C)(C)NC(=O)c2ccc3c(C4CCCC4)c(-c4ncc(Cl)cn4)n(C)c3c2)ccc1/C=C/C(=O)O
value-measured: 500

Give concentration at 1 h for the following compound: COCCOc1cc(NC(=O)C(C)(C)NC(=O)c2ccc3c(C4CCCC4)c(-c4ncc(Cl)cn4)n(C)c3c2)ccc1/C=C/C(=O)O 200

====

assay: Permeability across apical to basolateral side in human Caco2 cells; assay type: ADME, cell-based; details: Caco-2, read-out: permeability
Response field label takes 1 (yes) when Papp A→B is strictly below 20 ×10⁻⁶ cm/s and 0 (no) in all other cases.

chemical-structure: CCOc1cc(NC(=O)C(C)(C)NC(=O)c2ccc3c(C4CCCC4)c(-c4ncc(Cl)cn4)n(C)c3c2)ccc1/C=C/C(=O)O
label-class: 0 (no)
//
chemical-structure: CCOc1cc(NC(=O)C2(NC(=O)c3ccc4c(C5CCCC5)c(-c5ncc(Br)cn5)n(C)c4c3)CCC2)ccc1/C=C/C(=O)O
label-class: 1 (yes)
//
chemical-structure: CCOc1cc(NC(=O)C2(NC(=O)c3ccc4c(C5CCCC5)c(-c5ccccn5)n(C)c4c3)CCC2)ccc1/C=C/C(=O)O
label-class: 1 (yes)
//
chemical-structure: CCOc1cc(NC(=O)C2(NC(=O)c3ccc4c(C5CCCC5)c(-c5ccc(Cl)cn5)n(C)c4c3)CCC2)ccc1/C=C/C(=O)O
label-class: 1 (yes)

Read the next record carefully.
Would you kindly verify if Papp A→B of COCCOc1cc(NC(=O)C(C)(C)NC(=O)c2ccc3c(C4CCCC4)c(-c4ncc(Cl)cn4)n(C)c3c2)ccc1/C=C/C(=O)O is strictly less than 20 ×10⁻⁶ cm/s? 1 (yes)

====

experiment: Half life in rat at 2 mg/kg, iv; assay type: ADME, organism-based; design: dose 2 mg/kg, route intravenous; settings: in vivo
The entries below are paired with their reported half-life.
# output: bare number, implied unit h

Examples with answers:
chemical-structure: CCOc1cc(NC(=O)C2(NC(=O)c3ccc4c(C5CCCC5)c(-c5ncc(Cl)cn5)n(C)c4c3)CCC2)ccc1/C=C/C(=O)O
measure-unit: h
half-life: 2.4

chemical-structure: COCCOc1cc(NC(=O)C2(NC(=O)c3ccc4c(C5CCCC5)c(-c5ncc(Cl)cn5)n(C)c4c3)CCC2)ccc1/C=C/C(=O)O
measure-unit: h
half-life: 2.1

From here, focus on the item given below.
Give half-life for the following compound: CCOc1cc(NC(=O)C2(NC(=O)c3ccc4c(C5CCCC5)c(-c5ccc(F)cn5)n(C)c4c3)CCC2)ccc1/C=C/C(=O)O 1.5

====

assay: Inhibition of HCV full-length NS5B polymerase; set-up: species or system Hepacivirus hominis
experimental-readout: pIC50
Note on units: pIC50 is unitless, being -log10 of a concentration expressed in mol/L.

Examples with answers:
chemical-structure: CC(C)Oc1cc(NC(=O)C2(NC(=O)c3ccc4c(C5CCCC5)c(-c5ccccn5)n(C)c4c3)CCC2)ccc1/C=C/C(=O)O
pIC50: 6.96
--
chemical-structure: Cn1c(-c2ccccn2)c(C2CCCC2)c2ccc(C(=O)NC3(C(=O)Nc4ccc(/C=C/C(=O)O)cc4Cl)CCC3)cc21
pIC50: 6.52
--
chemical-structure: COCCOc1cc(NC(=O)C2(NC(=O)c3ccc4c(C5CCCC5)c(-c5ccccn5)n(C)c4c3)CCC2)ccc1/C=C/C(=O)O
pIC50: 7.25
--
chemical-structure: Cn1c(-c2ccccn2)c(C2CCCC2)c2ccc(C(=O)NC3(C(=O)Nc4ccc(/C=C/C(=O)O)c(F)c4)CCC3)cc21
pIC50: 7.21
--
chemical-structure: COCCOc1cc(NC(=O)C(C)(C)NC(=O)c2ccc3c(C4CCCC4)c(-c4ncc(Cl)cn4)n(C)c3c2)ccc1/C=C/C(=O)O
pIC50: 6.70
--
chemical-structure: Cn1c(-c2ccccn2)c(C2CCCC2)c2ccc(C(=O)NC3(C(=O)Nc4ccc(/C=C/C(=O)O)cc4F)CCC3)cc21
pIC50: 6.64

Give pIC50 for the following molecule: Cn1c(-c2ccccn2)c(C2CCCC2)c2ccc(C(=O)NC3(C(=O)Nc4ccc(/C=C/C(=O)O)c(C(F)(F)F)c4)CCC3)cc21 6.74

====

assay: Half life in rat liver microsomes; format: ADME
The entries below are paired with their reported half-life.
Form entry: enter the amount, then its unit.

Examples with answers:
chemical-structure: CCOc1cc(NC(=O)C2(NC(=O)c3ccc4c(C5CCCC5)c(-c5ccc(Cl)cn5)n(C)c4c3)CCC2)ccc1/C=C/C(=O)O
half-life: 1.73 h
//
chemical-structure: COc1cc(NC(=O)C2(NC(=O)c3ccc4c(C5CCCC5)c(-c5ccccn5)n(C)c4c3)CCC2)cc(OC)c1/C=C/C(=O)O
half-life: 0.7 h
//
chemical-structure: CCOc1cc(NC(=O)C2(NC(=O)c3ccc4c(C5CCCC5)c(-c5ncc(Cl)cn5)n(C)c4c3)CCC2)ccc1/C=C/C(=O)O
half-life: 1.73 h

From here, focus on the item given below.
Give half-life for the following compound: CCOc1cc(NC(=O)C2(NC(=O)c3ccc4c(C5CCCC5)c(-c5ncc(Br)cn5)n(C)c4c3)CCC2)ccc1/C=C/C(=O)O 1.73 h
